Answer each item with its documented IC50.

input: Recorded IC50 for CCc1cc(O)c(F)cc1-c1ccc2c(-c3nc4c([nH]3)CN(C(=O)NCC(O)CCl)C4)n[nH]c2c1 (stereo not shown) [MDI-1288] with RET (Homo sapiens (Human), UniProt P07949), please?
output: 3.43 nM

input: Recorded IC50 for CCc1cc(O)c(F)cc1-c1ccc2c(-c3nc4c([nH]3)CN(C(=O)N3CCN(C)CC3)C4)n[nH]c2c1 [MDI-235] with RET (Homo sapiens (Human), UniProt P07949), please?
output: 0.1 nM

input: Recorded IC50 for CCc1cc(O)c(F)cc1-c1ccc2c(-c3nc4c([nH]3)CN(C(=O)N3CC[C@H](O)C3)C4)n[nH]c2c1 [MDI-1228] with RET (Homo sapiens (Human), UniProt P07949), please?
output: 0.62 nM

input: Recorded IC50 for CCc1cc(O)c(F)cc1-c1ccc2c(-c3nc4c([nH]3)CN(C(=O)C3CC3)C4)n[nH]c2c1 [MDI-1233] with RET (Homo sapiens (Human), UniProt P07949), please?
output: 4.21 nM

###

# TARGET: TRKA (Homo sapiens (Human))
# Sequence (P04629 33-796 limits assumed): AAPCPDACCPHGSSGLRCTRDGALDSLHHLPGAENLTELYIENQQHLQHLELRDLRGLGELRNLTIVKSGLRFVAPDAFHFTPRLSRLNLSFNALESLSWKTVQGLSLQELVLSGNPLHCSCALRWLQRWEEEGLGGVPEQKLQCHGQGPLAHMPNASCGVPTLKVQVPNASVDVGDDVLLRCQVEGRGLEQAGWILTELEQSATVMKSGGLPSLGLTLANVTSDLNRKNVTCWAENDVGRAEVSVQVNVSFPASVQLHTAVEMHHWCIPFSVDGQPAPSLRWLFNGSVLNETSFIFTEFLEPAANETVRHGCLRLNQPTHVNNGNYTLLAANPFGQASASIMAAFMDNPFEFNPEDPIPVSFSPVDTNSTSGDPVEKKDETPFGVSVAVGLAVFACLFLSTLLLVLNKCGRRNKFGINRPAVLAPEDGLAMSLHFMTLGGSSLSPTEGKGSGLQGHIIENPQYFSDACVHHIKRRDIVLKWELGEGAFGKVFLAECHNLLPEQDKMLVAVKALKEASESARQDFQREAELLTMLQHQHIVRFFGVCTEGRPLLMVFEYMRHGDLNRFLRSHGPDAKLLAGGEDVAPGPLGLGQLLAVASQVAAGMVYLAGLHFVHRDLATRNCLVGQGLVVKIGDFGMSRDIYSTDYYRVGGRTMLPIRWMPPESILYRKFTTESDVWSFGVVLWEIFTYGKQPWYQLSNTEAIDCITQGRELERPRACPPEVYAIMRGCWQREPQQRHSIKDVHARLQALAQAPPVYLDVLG
# ASSAY SUMMARY: Inhibitory activity on TRKA (ADP-Glo Kinase Assay)
MEASURE NAME: IC50 (nM)
The answer is to be given in nM; state only the numeric part.

input: Recorded IC50 for CCc1cc(O)c(F)cc1-c1ccc2c(-c3nc4c([nH]3)CN(C(=O)c3cnc(N5CCOCC5)cn3)C4)n[nH]c2c1 [MDI-201] with TRKA (Homo sapiens (Human)), please?
output: 5.76

input: Recorded IC50 for CCc1cc(O)c(F)cc1-c1ccc2c(-c3nc4c([nH]3)CN(C(=O)N3CCN(C)CC3)C4)n[nH]c2c1 [MDI-235] with TRKA (Homo sapiens (Human)), please?
output: 0.57

input: Recorded IC50 for CCc1cc(O)c(F)cc1-c1ccc2c(-c3nc4c([nH]3)CN(C(=O)N3CCCC3)C4)n[nH]c2c1 [MDI-231] with TRKA (Homo sapiens (Human)), please?
output: 2.82

input: Recorded IC50 for CCc1cc(O)c(F)cc1-c1ccc2c(-c3nc4c([nH]3)CN(C(=O)N3CCOCC3)C4)n[nH]c2c1 [MDI-234] with TRKA (Homo sapiens (Human)), please?
output: 1.07

input: Recorded IC50 for CCc1cc(O)c(F)cc1-c1ccc2c(-c3nc4c([nH]3)CN(C(=O)N3CCN(CC)CC3)C4)n[nH]c2c1 [MDI-236] with TRKA (Homo sapiens (Human)), please?
output: 0.23

input: Recorded IC50 for CCc1cc(O)c(F)cc1-c1ccc2c(-c3nc4c([nH]3)CN(C(=O)N3CCCCC3)C4)n[nH]c2c1 [MDI-233] with TRKA (Homo sapiens (Human)), please?
output: 9.01

input: Recorded IC50 for CCc1cc(O)c(F)cc1-c1ccc2c(-c3nc4c([nH]3)CN(C(=O)N3CCC(O)CC3)C4)n[nH]c2c1 [MDI-245] with TRKA (Homo sapiens (Human)), please?
output: 0.83

input: Recorded IC50 for CCc1cc(O)c(F)cc1-c1ccc2c(-c3nc4c([nH]3)CN(C(=O)N3CC[C@H](O)C3)C4)n[nH]c2c1 [MDI-1228] with TRKA (Homo sapiens (Human)), please?
output: 1.82

input: Recorded IC50 for CCc1cc(O)c(F)cc1-c1ccc2c(-c3nc4c([nH]3)CN(C(=O)NCC(O)CCl)C4)n[nH]c2c1 (stereo not drawn) [MDI-1288] with TRKA (Homo sapiens (Human)), please?
output: 0.89

###

Answer each item with its documented IC50.
# TARGET: TRKC (Homo sapiens (Human), UniProt Q16288)
# Sequence (Q16288 32-839): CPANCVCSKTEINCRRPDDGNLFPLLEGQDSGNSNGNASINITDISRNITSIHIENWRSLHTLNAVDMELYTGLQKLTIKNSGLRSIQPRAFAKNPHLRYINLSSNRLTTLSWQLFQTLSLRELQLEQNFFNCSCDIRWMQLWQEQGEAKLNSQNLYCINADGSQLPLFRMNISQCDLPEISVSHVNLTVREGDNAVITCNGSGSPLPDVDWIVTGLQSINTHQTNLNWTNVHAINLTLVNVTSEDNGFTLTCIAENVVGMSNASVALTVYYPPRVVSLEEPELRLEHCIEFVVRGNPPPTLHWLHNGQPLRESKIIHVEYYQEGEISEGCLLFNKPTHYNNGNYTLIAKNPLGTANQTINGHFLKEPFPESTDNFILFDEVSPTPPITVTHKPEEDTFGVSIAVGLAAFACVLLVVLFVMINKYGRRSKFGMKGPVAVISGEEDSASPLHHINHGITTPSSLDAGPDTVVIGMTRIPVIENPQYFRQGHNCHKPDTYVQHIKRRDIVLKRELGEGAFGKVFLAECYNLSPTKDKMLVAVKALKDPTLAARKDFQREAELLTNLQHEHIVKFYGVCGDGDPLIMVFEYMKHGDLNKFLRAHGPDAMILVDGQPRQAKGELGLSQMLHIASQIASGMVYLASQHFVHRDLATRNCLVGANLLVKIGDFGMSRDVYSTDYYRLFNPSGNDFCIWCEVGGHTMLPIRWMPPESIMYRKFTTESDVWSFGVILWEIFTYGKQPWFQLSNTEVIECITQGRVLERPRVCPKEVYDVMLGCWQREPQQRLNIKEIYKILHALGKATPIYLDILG
# ASSAY SUMMARY: Inhibitory activity on TRKC (ADP-Glo Kinase Assay)
The answer is to be given in nM; state only the numeric part.

input: May I ask what IC50 has been recorded for CCc1cc(O)c(F)cc1-c1ccc2c(-c3nc4c([nH]3)CN(C(=O)NCC(O)CCl)C4)n[nH]c2c1 (stereo not drawn) [MDI-1288] ?
output: 0.59

input: May I ask what IC50 has been recorded for CCc1cc(O)c(F)cc1-c1ccc2c(-c3nc4c([nH]3)CN(C(=O)N3CCN(CC)CC3)C4)n[nH]c2c1 [MDI-236] ?
output: 0.2

input: May I ask what IC50 has been recorded for CCc1cc(O)c(F)cc1-c1ccc2c(-c3nc4c([nH]3)CN(C(=O)N3CCCC3)C4)n[nH]c2c1 [MDI-231] ?
output: 1.49

input: May I ask what IC50 has been recorded for CCc1cc(O)c(F)cc1-c1ccc2c(-c3nc4c([nH]3)CN(C(=O)N3CCOCC3)C4)n[nH]c2c1 [MDI-234] ?
output: 0.65

input: May I ask what IC50 has been recorded for CCc1cc(O)c(F)cc1-c1ccc2c(-c3nc4c([nH]3)CN(C(=O)c3cnc(N5CCOCC5)cn3)C4)n[nH]c2c1 [MDI-201] ?
output: 2.2

input: May I ask what IC50 has been recorded for CCc1cc(O)c(F)cc1-c1ccc2c(-c3nc4c([nH]3)CN(C(=O)N3CCN(C)CC3)C4)n[nH]c2c1 [MDI-235] ?
output: 0.27

input: May I ask what IC50 has been recorded for CCc1cc(O)c(F)cc1-c1ccc2c(-c3nc4c([nH]3)CN(C(=O)N3CC[C@H](O)C3)C4)n[nH]c2c1 [MDI-1228] ?
output: 0.6

input: May I ask what IC50 has been recorded for CCc1cc(O)c(F)cc1-c1ccc2c(-c3nc4c([nH]3)CN(C(=O)N3CCCCC3)C4)n[nH]c2c1 [MDI-233] ?
output: 6.32

input: May I ask what IC50 has been recorded for CCc1cc(O)c(F)cc1-c1ccc2c(-c3nc4c([nH]3)CN(C(=O)N3CCC(O)CC3)C4)n[nH]c2c1 [MDI-245] ?
output: 0.57

###

Answer each item with its documented IC50.
# TARGET: TRKB (Homo sapiens (Human))
# Sequence (Q16620 32-822): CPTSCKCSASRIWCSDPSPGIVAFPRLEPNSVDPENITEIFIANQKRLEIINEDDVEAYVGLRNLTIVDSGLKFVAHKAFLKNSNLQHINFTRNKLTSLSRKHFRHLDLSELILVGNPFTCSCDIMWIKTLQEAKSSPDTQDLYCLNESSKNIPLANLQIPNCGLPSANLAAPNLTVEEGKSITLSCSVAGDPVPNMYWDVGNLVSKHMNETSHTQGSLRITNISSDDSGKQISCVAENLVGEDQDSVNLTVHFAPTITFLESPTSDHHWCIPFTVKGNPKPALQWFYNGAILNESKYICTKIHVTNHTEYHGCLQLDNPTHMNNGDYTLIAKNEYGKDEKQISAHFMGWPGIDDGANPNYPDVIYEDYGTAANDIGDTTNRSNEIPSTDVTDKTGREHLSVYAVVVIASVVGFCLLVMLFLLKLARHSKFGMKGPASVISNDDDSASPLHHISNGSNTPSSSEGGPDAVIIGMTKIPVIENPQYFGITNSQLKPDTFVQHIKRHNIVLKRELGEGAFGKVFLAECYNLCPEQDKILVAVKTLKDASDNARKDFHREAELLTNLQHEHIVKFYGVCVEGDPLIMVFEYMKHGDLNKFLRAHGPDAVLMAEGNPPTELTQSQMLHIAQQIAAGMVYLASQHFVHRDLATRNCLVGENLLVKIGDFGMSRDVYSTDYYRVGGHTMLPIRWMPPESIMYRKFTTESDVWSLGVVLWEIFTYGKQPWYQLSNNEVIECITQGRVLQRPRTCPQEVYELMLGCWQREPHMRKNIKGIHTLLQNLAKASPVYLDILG
# ASSAY SUMMARY: Inhibitory activity on TRKB (ADP-Glo Kinase Assay)
The answer is to be given in nM; state only the numeric part.

input: May I ask what IC50 has been recorded for CCc1cc(O)c(F)cc1-c1ccc2c(-c3nc4c([nH]3)CN(C(=O)NCC(O)CCl)C4)n[nH]c2c1 (stereo not drawn) ?
output: 1.04

input: May I ask what IC50 has been recorded for CCc1cc(O)c(F)cc1-c1ccc2c(-c3nc4c([nH]3)CN(C(=O)N3CCC(O)CC3)C4)n[nH]c2c1 ?
output: 3.37

input: May I ask what IC50 has been recorded for CCc1cc(O)c(F)cc1-c1ccc2c(-c3nc4c([nH]3)CN(C(=O)N3CCOCC3)C4)n[nH]c2c1 ?
output: 1.27

input: May I ask what IC50 has been recorded for CCc1cc(O)c(F)cc1-c1ccc2c(-c3nc4c([nH]3)CN(C(=O)N3CC[C@H](O)C3)C4)n[nH]c2c1 ?
output: 1.77

input: May I ask what IC50 has been recorded for CCc1cc(O)c(F)cc1-c1ccc2c(-c3nc4c([nH]3)CN(C(=O)N3CCN(C)CC3)C4)n[nH]c2c1 ?
output: 1.39

input: May I ask what IC50 has been recorded for CCc1cc(O)c(F)cc1-c1ccc2c(-c3nc4c([nH]3)CN(C(=O)N3CCN(CC)CC3)C4)n[nH]c2c1 ?
output: 1.06

input: May I ask what IC50 has been recorded for CCc1cc(O)c(F)cc1-c1ccc2c(-c3nc4c([nH]3)CN(C(=O)N3CCCCC3)C4)n[nH]c2c1 ?
output: 30.4

input: May I ask what IC50 has been recorded for CCc1cc(O)c(F)cc1-c1ccc2c(-c3nc4c([nH]3)CN(C(=O)N3CCCC3)C4)n[nH]c2c1 ?
output: 5.86

input: May I ask what IC50 has been recorded for CCc1cc(O)c(F)cc1-c1ccc2c(-c3nc4c([nH]3)CN(C(=O)c3cnc(N5CCOCC5)cn3)C4)n[nH]c2c1 ?
output: 6.14

###

# TARGET: TRKC (Homo sapiens (Human), UniProt Q16288)
# ASSAY SUMMARY: Inhibitory activity on TRKC (ADP-Glo Kinase Assay)
# CONDITION INFO: read-out: TRKC IC50; ATP 5 μM
MEASURE NAME: IC50 (nM)
The answer is to be given in nM; state only the numeric part.

input: May I ask what IC50 has been recorded for CCc1cc(O)c(F)cc1-c1ccc2c(-c3nc4c([nH]3)CN(C(=O)NCCO)C4)n[nH]c2c1 [MDI-248] ?
output: 3.77

input: May I ask what IC50 has been recorded for CCc1cc(O)c(F)cc1-c1ccc2c(-c3nc4c([nH]3)CN(C(=O)N(C)C)C4)n[nH]c2c1 [MDI-257] ?
output: 0.72

input: May I ask what IC50 has been recorded for CCc1cc(O)c(F)cc1-c1ccc2c(-c3nc4c([nH]3)CN(C(=O)C3CC3)C4)n[nH]c2c1 [MDI-1233] ?
output: 5.91

input: May I ask what IC50 has been recorded for CCc1cc(O)c(F)cc1-c1ccc2c(-c3nc4c([nH]3)CN(S(=O)(=O)C3CC3)C4)n[nH]c2c1 [MDI-218] ?
output: 5.1

input: May I ask what IC50 has been recorded for CCNC(=O)N1Cc2nc(-c3n[nH]c4cc(-c5cc(F)c(O)cc5CC)ccc34)[nH]c2C1 [MDI-247] ?
output: 3.73

input: May I ask what IC50 has been recorded for CCOC(=O)N1Cc2nc(-c3n[nH]c4cc(-c5cc(F)c(O)cc5CC)ccc34)[nH]c2C1 [MDI-253] ?
output: 13.1
